- System: UO-31 renal
- assay.explanation: NCI tumour cell line growth inhibition, 48 h
quantity.name: TGI (µM)
Provide only the numeric value, understood in µM.

# count of solved cases: 3
Cc1ccc(N=NC(C(=O)c2ccccc2)C(=O)c2ccccc2)cc1: 44.4
C=C1CC[C@@]2(OC1)OC1C[C@H]3[C@@H]4CC=C5C[C@@H](O)CC(OC6OCC(OC(=O)[C@@H](O)[C@@H](C)CC)C(OC(C)=O)C6OC6OC(C)C(O)C(O)C6O)[C@]5(C)[C@H]4CC[C@]3(C)C1[C@@H]2C (some centres not stated): 4.56
COc1ccc(OC(=O)O[C@H]2[C@H](O[C@H]3[C@@H](O)COC(O[C@H]4C[C@H]5[C@@H]6CC=C7C[C@@H](O)CC[C@]7(C)[C@H]6CC[C@]5(C)[C@H]4[C@H](C)C(=O)CCC(C)C)[C@@H]3OC(C)=O)OC[C@@H](O)[C@@H]2O)cc1 (some centres not stated): 0.995

INPUT: Can you look up the measured TGI of CCN(CC)Cc1cc(Nc2ccnc3ccc4c(nnn4C)c23)ccc1O for me?
OUTPUT: 23.6

====

Listed here are compounds together with their documented TGI.
- Tested on: RXF 393 renal
- assay.explanation: NCI tumour cell line growth inhibition, 48 h

Please review the entries below; each comes with its answer.
O=[N+]([O-])c1ccc2nnnn2c1: > 100 µM
O=[N+]([O-])C(C(Cl)=C(Cl)Cl)=C(N1CCOCC1)N1CCOCC1: > 100 µM
O=C(CCc1ccc(O)cc1)NCCc1ccc(O)cc1: > 100 µM

INPUT: Item COc1ccc(C(=O)/C=C/c2cccnc2Nc2cc(OC)c(OC)c(OC)c2)cc1 with RXF 393 renal - TGI?
OUTPUT: 5.36 µM

INPUT: Let us now turn to Cc1ccc(NC(=O)C2C(=O)N(c3ccc(C)c(C)c3)C(=O)/C2=N/O)cc1C (configuration not stated)
OUTPUT: > 100 µM

INPUT: Try this compound too: COc1cccc(N=Cc2c3ccccc3c(=O)n3c2oc2ccccc23)c1
OUTPUT: 20.9 µM

INPUT: Further, for Cn1cc(C2=C(c3cn(C)c4c(N)cccc34)C(=O)NC2=O)c2ccccc21 ?
OUTPUT: 6.85 µM

INPUT: Ok, now CCCNC(=S)N/N=C(\C)c1ccccn1
OUTPUT: 6.55 µM

INPUT: Now consider COc1ccc(C2CC(=O)c3c(OC)cc(OC)cc3O2)cc1 (configuration not stated) .
OUTPUT: > 100 µM

INPUT: Same for Cc1nnc([C@@]2(C)CC[C@H]3[C@@H](CC=C4C[C@@H](O)CC[C@@]43C)[C@@H]2CC#N)o1
OUTPUT: > 100 µM

INPUT: Would you kindly repeat that for CC(C(=O)O)c1cnn(-c2ccccc2)c1-n1cccc1 (configuration not stated) ?
OUTPUT: > 100 µM

INPUT: How about COC(=O)c1cc2c(c(C(=O)OC)c1O)C(=O)C=CC2=O ?
OUTPUT: > 48.9 µM

INPUT: Same for CCOC(=O)C(Cl)(NC(=O)c1ccc(F)cc1)C(F)(F)F (configuration not stated)
OUTPUT: > 100 µM

INPUT: Next compound up: COC(=O)[C@]12CCC(C)(C)C[C@H]1C1=CC[C@@H]3[C@@]4(C)C/C(=C/c5cccnc5)C(=O)C(C)(C)[C@@H]4CC[C@@]3(C)[C@]1(C)CC2
OUTPUT: 17.5 µM

INPUT: Item: N#[O+].O=S(=O)([O-])[O-].[NH2-].[NH2-].[NH2-].[NH2-].[NH2-].[Ru+5]
OUTPUT: > 100 µM
